EC50 values, listed per item
- Measured On: TLR8 (Homo sapiens)
- Construct: host or cells: HEK-Blue cells (human HEK) co-expressing TLR8 and an NF-kB/AP1-inducible SEAP reporter
- Protocol Summary: In vitro human TLR8 binding reporter assay (HEK-Blue, NF-kB/AP1-inducible SEAP)
- Type: cell-based
- Particulars: numeric bounds

// worked examples, EC50 included
[[record]]
molecule = "CCN(Cc1nc2c(N)nc3cc(-c4cc[nH]n4)ccc3c2[nH]1)C(=O)CCC(C)C [Compound 445]"
test_result = "> 62 µM"

[[record]]
molecule = "N#Cc1ccc(-c2ccc3c(c2)nc(N)c2nc(CN4CCCC4=O)[nH]c23)cc1 [Compound 434]"
test_result = "> 30 µM"

[[record]]
molecule = "CCN(Cc1nc2c(N)nc3cc(-c4cc[nH]n4)ccc3c2[nH]1)C(=O)c1ccc(Cl)cc1 [Compound 452]"
test_result = "> 62 µM"


Exam item: Fill in the blank: the reported EC50 of CCN(Cc1nc2c(N)nc3cc(-c4cc[nH]n4)ccc3c2[nH]1)C(=O)c1ccc(OC)cc1 [Compound 441] is ____.
Marked response: > 62 µM

Exam item: State the recorded EC50 for this entry: CCN(Cc1nc2c(N)nc3cc(Br)ccc3c2n1CC(C)C)C(C)=O [Compound 430]
Marked response: > 10 µM

Exam item: // EC50 lookup, key: CCCS(=O)(=O)N(CC)Cc1nc2c(N)nc3cc(-c4cc[nH]n4)ccc3c2[nH]1 [Compound 460]
Marked response: > 62 µM

Exam item: Dear colleague, I am looking for the recorded EC50 of the following molecule: CCOC(=O)N(CC)Cc1nc2c(N)nc3cc(-c4cc[nH]n4)ccc3c2[nH]1 [Compound 436]
Marked response: > 50 µM

Exam item: // EC50 lookup, key: CCN(Cc1nc2c(N)nc3cc(Br)ccc3c2n1CCCOC)C(C)=O [Compound 431]
Marked response: > 10 µM

Exam item: # input molecule: CCN(Cc1nc2c(N)nc3cc(-c4cc[nH]n4)ccc3c2[nH]1)C(=O)Cc1ccccc1 [Compound 443] ; wanted: its EC50
Marked response: > 62 µM

Exam item: Quick one: EC50 for CCN(Cc1nc2c(N)nc3cc(-c4ccc(C)cc4)ccc3c2[nH]1)C(C)=O [Compound 422] ?
Marked response: > 10 µM

###

- Measured On: hNLRP3 (Homo sapiens)
- Construct: THP-1 cells were purchased from the American Type Culture Collection
- Sequence (Q96P20 whole entry): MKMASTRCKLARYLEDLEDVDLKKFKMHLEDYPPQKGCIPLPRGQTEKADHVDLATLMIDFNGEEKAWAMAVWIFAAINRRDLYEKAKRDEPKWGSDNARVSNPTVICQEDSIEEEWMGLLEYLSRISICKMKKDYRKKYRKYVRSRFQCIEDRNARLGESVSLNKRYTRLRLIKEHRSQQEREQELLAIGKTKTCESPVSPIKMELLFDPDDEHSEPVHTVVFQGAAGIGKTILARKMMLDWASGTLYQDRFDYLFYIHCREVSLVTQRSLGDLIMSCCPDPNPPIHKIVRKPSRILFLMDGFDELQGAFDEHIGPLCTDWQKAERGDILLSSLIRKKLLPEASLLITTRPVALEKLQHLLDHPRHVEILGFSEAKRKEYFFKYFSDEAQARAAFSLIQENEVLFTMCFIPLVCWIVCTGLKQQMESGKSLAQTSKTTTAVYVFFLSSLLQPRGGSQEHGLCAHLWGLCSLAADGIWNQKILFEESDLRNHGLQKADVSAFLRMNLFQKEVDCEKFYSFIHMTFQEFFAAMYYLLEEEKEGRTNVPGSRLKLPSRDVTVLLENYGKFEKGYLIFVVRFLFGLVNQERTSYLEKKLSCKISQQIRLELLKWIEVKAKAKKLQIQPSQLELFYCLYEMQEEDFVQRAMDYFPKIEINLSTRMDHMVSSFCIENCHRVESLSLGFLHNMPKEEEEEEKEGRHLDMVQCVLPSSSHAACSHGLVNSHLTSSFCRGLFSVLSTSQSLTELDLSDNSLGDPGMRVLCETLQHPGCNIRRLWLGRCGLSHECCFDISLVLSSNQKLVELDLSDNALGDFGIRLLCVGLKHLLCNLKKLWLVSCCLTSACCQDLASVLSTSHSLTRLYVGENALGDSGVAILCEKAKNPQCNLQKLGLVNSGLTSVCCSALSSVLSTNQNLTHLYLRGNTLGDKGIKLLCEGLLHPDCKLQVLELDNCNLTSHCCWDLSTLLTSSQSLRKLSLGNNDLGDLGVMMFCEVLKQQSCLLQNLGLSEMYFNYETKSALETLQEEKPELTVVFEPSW
- Protocol Summary: Measurement of IL-1β production in PMA-differentiated THP-1 cells (hNLRP3 agonist; ELISA, alternative and hTRF procedures)
Quantity Name: pEC50
API: returns pEC50 as number; meaning -log10 of concentration in mol/L.

Worked cases, pEC50 given:
[[record]]
compound = "CCN(Cc1nc2c(N)nc3cc(-c4cc[nH]n4)ccc3c2[nH]1)C(=O)c1ccccn1 [Compound 439]"
measured_on = "hNLRP3 (Homo sapiens)"
quantity_name = "pEC50"
test_result = 5.24

[[record]]
compound = "CN(Cc1nc2c(N)nc3cc(-c4cc[nH]n4)ccc3c2[nH]1)C(=O)c1ccccc1 [Compound 376]"
measured_on = "hNLRP3 (Homo sapiens)"
quantity_name = "pEC50"
test_result = 5.44

[[record]]
compound = "Nc1nc2cc(Br)ccc2c2[nH]c(CN3CC(c4ccccc4)CC3=O)nc12 (stereo not shown) [Compound 316]"
measured_on = "hNLRP3 (Homo sapiens)"
quantity_name = "pEC50"
test_result = 5.96


Exam item: For CCC(=O)N(CC)Cc1nc2c(N)nc3cc(-c4ccn[nH]4)ccc3c2n1CC [Compound 473] , what is its reported pEC50?
Marked response: 6.66

###

- Measured On: TLR7 (Homo sapiens)
- Construct: host or cells: HEK-Blue cells (human HEK) co-expressing TLR7 and an NF-kB/AP1-inducible SEAP reporter
- Sequence (Q9NYK1 27-1049): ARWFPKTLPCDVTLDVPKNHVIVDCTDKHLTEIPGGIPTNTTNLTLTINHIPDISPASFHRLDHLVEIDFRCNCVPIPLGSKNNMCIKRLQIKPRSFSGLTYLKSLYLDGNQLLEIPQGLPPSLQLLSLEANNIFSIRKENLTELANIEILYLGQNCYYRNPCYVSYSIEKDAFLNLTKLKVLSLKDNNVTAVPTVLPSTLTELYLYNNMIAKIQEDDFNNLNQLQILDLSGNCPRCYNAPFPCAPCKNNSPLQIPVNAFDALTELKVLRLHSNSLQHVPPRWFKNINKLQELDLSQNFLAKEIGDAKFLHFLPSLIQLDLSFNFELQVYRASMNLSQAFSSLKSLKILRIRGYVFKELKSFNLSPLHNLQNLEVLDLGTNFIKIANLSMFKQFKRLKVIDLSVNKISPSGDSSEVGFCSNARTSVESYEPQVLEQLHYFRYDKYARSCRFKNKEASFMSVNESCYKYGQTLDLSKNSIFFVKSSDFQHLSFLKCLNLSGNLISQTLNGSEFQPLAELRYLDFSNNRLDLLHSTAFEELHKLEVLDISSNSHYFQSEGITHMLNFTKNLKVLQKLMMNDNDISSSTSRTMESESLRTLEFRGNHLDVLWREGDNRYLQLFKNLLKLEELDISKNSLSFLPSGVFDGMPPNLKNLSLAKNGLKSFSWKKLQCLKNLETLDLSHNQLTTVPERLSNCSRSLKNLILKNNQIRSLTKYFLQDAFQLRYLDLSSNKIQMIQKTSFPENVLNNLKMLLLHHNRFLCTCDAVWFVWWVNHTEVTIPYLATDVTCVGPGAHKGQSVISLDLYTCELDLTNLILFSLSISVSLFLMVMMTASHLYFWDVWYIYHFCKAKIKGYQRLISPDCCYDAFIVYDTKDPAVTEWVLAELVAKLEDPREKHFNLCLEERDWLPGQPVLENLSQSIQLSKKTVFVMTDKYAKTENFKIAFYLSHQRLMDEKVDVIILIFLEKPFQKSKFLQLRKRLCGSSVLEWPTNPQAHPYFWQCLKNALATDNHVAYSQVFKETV
- Protocol Summary: In vitro human TLR7 binding reporter assay (HEK-Blue, NF-kB/AP1-inducible SEAP)
- Type: cell-based
- Particulars: activity range symbols
Quantity Name: EC50

[[record]]
compound = "CCN(Cc1nc2c(N)nc3cc(Br)ccc3c2[nH]1)C(C)=O"
test_result = "> 100 µM"

[[record]]
compound = "CCN(Cc1nc2c(N)nc3cc(-c4cccs4)ccc3c2n1CC)C(C)=O"
test_result = "> 100 µM"

[[record]]
compound = "Nc1nc2cc(-n3cccn3)ccc2c2[nH]c(CN3CCOC3=O)nc12"
test_result = "> 100 µM"

[[record]]
compound = "CCNCc1nc2c(N)nc3cc(-c4ccsc4)ccc3c2[nH]1"
test_result = "> 100 µM"


// next item, EC50 requested
Exam item: Look up EC50 with TLR7 (Homo sapiens) for this compound: Nc1nc2cc(-n3cccn3)ccc2c2[nH]c(CN3CCCC3=O)nc12
Marked response: > 100 µM

###

- Measured On: hNLRP3 (Homo sapiens)
- Construct: THP-1 cells were purchased from the American Type Culture Collection
- Protocol Summary: Measurement of IL-1β production in PMA-differentiated THP-1 cells (hNLRP3 agonist; ELISA, alternative and hTRF procedures)
Each entry below lists one item and its recorded pEC50 value.
In textbook form, pEC50 equals minus log to base ten of the concentration in mol/L.

These recorded examples may help you get a feel for the data.
[[record]]
compound = "Nc1nc2cc(-c3ccccc3F)ccc2c2[nH]c(CN3CCCC3=O)nc12"
test_result = 6.07

[[record]]
compound = "CCN(Cc1nc2c(N)nc3cc(-c4cc[nH]n4)ccc3c2[nH]1)C(=O)NC(C)(C)C"
test_result = 5.66

[[record]]
compound = "CC(C)(C)OC(=O)NCc1nc2c(N)nc3cc(-c4cc[nH]n4)ccc3c2[nH]1"
test_result = 5.04

[[record]]
compound = "CCN(Cc1nc2c(N)nc3cc(-c4ccsc4)ccc3c2[nH]1)C(C)=O"
test_result = 6.04

[[record]]
compound = "CCN(Cc1nc2c(N)nc3cc(Br)ccc3c2[nH]1)C(C)=O"
test_result = 5.13


Exam item: Look up pEC50 for this compound: CCN(Cc1nc2c(N)nc3cc(-c4cccnc4F)ccc3c2[nH]1)C(C)=O
Marked response: 5.59

Exam item: Consider the compound Nc1nc2cc(-c3ccc(C(F)(F)F)nc3)ccc2c2[nH]c(CN3CCCC3=O)nc12 and give its measured pEC50.
Marked response: 5.17

Exam item: Any idea what its pEC50 is? The compound is Nc1nc2cc(-n3cccn3)ccc2c2[nH]c(CN3CCOC3=O)nc12
Marked response: 5.24

Exam item: Form field: reported pEC50 of Nc1nc2cc(-c3ccccc3)ccc2c2[nH]c(CN3CCCC3=O)nc12
Marked response: 6.66

###

- Measured On: hNLRP3 (Homo sapiens)
- Construct: THP-1 cells were purchased from the American Type Culture Collection
- Protocol Summary: Measurement of IL-1β production in PMA-differentiated THP-1 cells (hNLRP3 agonist; ELISA, alternative and hTRF procedures)
pEC50: −log10 of the molar value.
We use 6 as the dividing line for pEC50: on or above the line is Satisfied, below is Not satisfied.

[[record]]
compound = "CCN(Cc1nc2c(N)nc3cc(-c4cc[nH]n4)ccc3c2[nH]1)C(=O)c1cnccn1"
cat = "Not satisfied"


Exam item: Threshold query (pEC50 >= 6) on CCCn1cc(-c2ccc3c(c2)nc(N)c2nc(CN(CC)C(C)=O)[nH]c23)cn1
Marked response: Not satisfied

Exam item: Has Cc1ccn(-c2ccc3c(c2)nc(N)c2nc(CN4CCCC4=O)[nH]c23)n1 a recorded pEC50 greater than or equal to 6?
Marked response: Not satisfied

Exam item: Textbook exercise: given the entry Nc1nc2cc(C3CCOCC3)ccc2c2[nH]c(CN3CCCC3=O)nc12 , state whether its pEC50 is greater than or equal to 6.
Marked response: Not satisfied

Exam item: Dear colleague, could you confirm whether CCn1c(CN2CCCC2=O)nc2c(N)nc3cc(-c4cccs4)ccc3c21 has pEC50 at or above 6?
Marked response: Satisfied

Exam item: Does NCc1nc2c(N)nc3cc(-c4cc[nH]n4)ccc3c2[nH]1 have a reported pEC50 of at least 6?
Marked response: Not satisfied

###

- Measured On: TLR8 (Homo sapiens, UniProt Q9NR97)
- Construct: host or cells: HEK-Blue cells (human HEK) co-expressing TLR8 and an NF-kB/AP1-inducible SEAP reporter
- Sequence (Q9NR97 27-1041): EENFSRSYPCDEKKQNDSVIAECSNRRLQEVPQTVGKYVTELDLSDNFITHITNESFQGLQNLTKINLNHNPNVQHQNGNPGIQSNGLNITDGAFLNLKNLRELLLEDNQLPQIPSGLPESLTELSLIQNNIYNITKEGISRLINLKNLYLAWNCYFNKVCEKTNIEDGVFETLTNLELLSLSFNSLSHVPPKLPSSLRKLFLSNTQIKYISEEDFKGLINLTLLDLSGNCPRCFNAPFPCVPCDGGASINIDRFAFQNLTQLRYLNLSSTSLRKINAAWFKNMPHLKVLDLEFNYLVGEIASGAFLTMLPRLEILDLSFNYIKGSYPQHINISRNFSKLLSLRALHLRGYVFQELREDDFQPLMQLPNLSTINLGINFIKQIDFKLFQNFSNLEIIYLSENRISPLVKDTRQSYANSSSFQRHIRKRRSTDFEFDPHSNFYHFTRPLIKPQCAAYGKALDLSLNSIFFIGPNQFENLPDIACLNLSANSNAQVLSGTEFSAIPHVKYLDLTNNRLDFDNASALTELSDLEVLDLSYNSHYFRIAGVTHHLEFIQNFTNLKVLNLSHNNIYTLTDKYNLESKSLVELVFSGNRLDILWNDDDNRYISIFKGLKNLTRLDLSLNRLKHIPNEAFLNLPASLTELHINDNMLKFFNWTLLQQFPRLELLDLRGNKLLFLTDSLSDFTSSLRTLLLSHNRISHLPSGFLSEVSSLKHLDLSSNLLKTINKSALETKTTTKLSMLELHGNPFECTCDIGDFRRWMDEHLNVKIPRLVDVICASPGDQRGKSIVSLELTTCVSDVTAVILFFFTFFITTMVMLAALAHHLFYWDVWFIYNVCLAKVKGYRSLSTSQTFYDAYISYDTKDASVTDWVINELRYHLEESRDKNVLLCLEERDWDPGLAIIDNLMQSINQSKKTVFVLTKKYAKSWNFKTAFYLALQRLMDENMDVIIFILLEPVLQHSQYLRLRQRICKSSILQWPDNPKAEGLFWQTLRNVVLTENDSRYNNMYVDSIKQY
- Protocol Summary: In vitro human TLR8 binding reporter assay (HEK-Blue, NF-kB/AP1-inducible SEAP)
- Assay type: cell-based
- Particulars: activity range symbols
Quantity Name: EC50

[[record]]
chemical_structure = "CCc1ccc2c(c1)nc(N)c1nc(CN(CC)C(C)=O)[nH]c12"
test_result = "> 100 µM"


Exam item: State its EC50 on TLR8 (Homo sapiens, UniProt Q9NR97): CCNCc1nc2c(N)nc3cc(Br)ccc3c2[nH]1
Marked response: 1 to 20 µM

Exam item: Return EC50 measured with TLR8 (Homo sapiens, UniProt Q9NR97) given this molecule: CCN(Cc1nc2c(N)nc3cc(-c4cc[nH]n4)ccc3c2n1C)C(=O)OC(C)(C)C
Marked response: > 100 µM

Exam item: Any idea what EC50 came out for CCNCc1nc2c(N)nc3cc(-n4cccn4)ccc3c2n1CCO on TLR8 (Homo sapiens, UniProt Q9NR97)?
Marked response: > 100 µM

Exam item: Provide value of EC50 for this record tested with TLR8 (Homo sapiens, UniProt Q9NR97): CCC(=O)N(CC)Cc1nc2c(N)nc3cc(-c4cc[nH]n4)ccc3c2[nH]1
Marked response: > 100 µM
